Biological target: CD28 (human) (UniProt P10747)
Test: flow cytometry, Jurkat cells (CD28)
RECORDED_METRIC: MFI at 33.3 nM (MFI)
Field format: number, assumed MFI, no unit text.

Item variant CD80 E35D/D46E/M47V/N63D/L85Q (Fc fusion) VIHVTKEVKEVATLSCGHNVSVEELAQTRIYWQKDKKMVLTMMSGEVNIWPEYKNRTIFDITDNLSIVILALRPSDEGTYECVVQKYEKDAFKREHLAEVT has what recorded MFI at 33.3 nM?
1330

Item CD80 variant Q33L/E35D/T41S/M47V IgV-Fc (Fc fusion) VIHVTKEVKEVATLSCGHNVSVEELAQTRIYWLKDKKMVLSMMSGDVNIWPEYKNRTIFDITNNLSIVILALRPSDEGTYECVVLKYEKDAFKREHLAEVT has what recorded MFI at 33.3 nM?
287

Item variant CD80 Q33L/E35D/M47I/N48D/A71G (Fc fusion) VIHVTKEVKEVATLSCGHNVSVEELAQTRIYWLKDKKMVLTMMSGDIDIWPEYKNRTIFDITNNLSIVILGLRPSDEGTYECVVLKYEKDAFKREHLAEVT has what recorded MFI at 33.3 nM?
644

Item CD80 variant E35D/M47I/E77A/L85Q/R94W IgV-Fc (Fc fusion) VIHVTKEVKEVATLSCGHNVSVEELAQTRIYWQKDKKMVLTMMSGDINIWPEYKNRTIFDITNNLSIVILALRPSDAGTYECVVQKYEKDAFKWEHLAEVT has what recorded MFI at 33.3 nM?
272
